# Test system: Trypanosoma rhodesiense
# measurement description: In vivo trypanocidal activity in infected mice (protocol based on Rane et al.)
# Design: unit not given here
# run conditions: 13 mg/kg, peritoneal (Table 2)
property: Activity at dosage, value in parentheses (increase in survival)

| compound smiles | experimental result |
| --- | --- |
| C[n+]1c(-c2ccc(C=NNC(=N)N)cc2)c(Br)n2ccccc21 | 7.0 |
| C[n+]1c(-c2ccc(C=NNC(=N)N)cc2)cn2ccccc21 | 4.0 |
| CN(C)C(=N)NN=Cc1ccc(-c2c([N+](=O)[O-])n3ccccc3[n+]2C)cc1 | 4.5 |
| C[n+]1c(-c2ccc(C=NNC3=NCCN3)cc2)cn2ccccc21 | 9.0 |

###

Attribute: Increase in survival
# Tested on: Trypanosoma rhodesiense
# measurement description: In vivo trypanocidal activity in infected mice (protocol based on Rane et al.)
# run conditions: 106 mg/kg, subcutaneous

| compound | assay system | reading unit | Increase in survival |
| --- | --- | --- | --- |
| C[n+]1c(-c2ccc(C(=N)N)cc2)cn2ccsc21 | Trypanosoma rhodesiense | days | 12.9 |
| C[n+]1c(-c2ccc(C=NNC(N)=S)cc2)cn2ccccc21 | Trypanosoma rhodesiense | days | 7.5 |
| C[n+]1c(-c2ccc(C=NO)cc2)cn2ccccc21 | Trypanosoma rhodesiense | days | 4.2 |
| CC(=O)Nc1ccc(-c2cn3ccccc3[n+]2C)cc1 [BJ36718] | Trypanosoma rhodesiense | days | 4.4 |
| CC(=O)Nc1ccc(-c2cn3c([n+]2C)CCCC3)cc1 | Trypanosoma rhodesiense | days | 7.4 |
| CC(=O)Nc1ccc(-c2cn3c(C)cc(C)cc3[n+]2C)cc1 | Trypanosoma rhodesiense | days | 2.9 |
| C[n+]1c(-c2ccc(C=NNC(N)=O)cc2)cn2ccccc21 | Trypanosoma rhodesiense | days | 10.9 |
| Cc1ccc2n(c1)cc(-c1ccc(C(=N)N)cc1)[n+]2C | Trypanosoma rhodesiense | days | 5.2 |
| C[n+]1c(-c2ccc(C(N)=NO)cc2)cn2ccccc21 | Trypanosoma rhodesiense | days | 9.9 |
| CC(=O)Nc1ccc(-c2cn3cc(I)ccc3[n+]2C)cc1 | Trypanosoma rhodesiense | days | 2.3 |
| C[n+]1c(-c2ccc(C=NNc3ncn[nH]3)cc2)cn2ccsc21 [BK2403S] | Trypanosoma rhodesiense | days | 7.7 |
